This section lists IC50 readings for CDK9 (Homo sapiens (Human), UniProt P50750).
Measure: IC50

[[record]]
compound = "C=CC(=O)Nc1ccc2c(Nc3n[nH]c4c3CN(C(=O)N[C@H](CN(C)C)C3CCOCC3)C4(C)C)nccc2c1 [Compound 202]"
measurement = "> 10 µM"

[[record]]
compound = "C=CC(=O)Nc1ccc(C(=O)Nc2n[nH]c3c2CN(C(=O)NC(CN(C)C)C2CCOC2)C3(C)C)cc1 (stereo not shown) [Compound 079]"
measurement = "1.06 µM"

[[record]]
compound = "C=CC(=O)Nc1ccc(Nc2n[nH]c3c2CN(C(=O)N[C@H](CN(C)C)C2CCOCC2)C3(C)C)nc1 [Compound 204]"
measurement = "> 10 µM"

[[record]]
compound = "C=CC(=O)Nc1cccc2c(Nc3n[nH]c4c3CN(C(=O)N[C@H](CN(C)C)C3CCOCC3)C4(C)C)nccc12 [Compound 203]"
measurement = "> 10 µM"

